System: RSK3(Kin.Dom.1-N-terminal);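 note: kd values determined as follow-up on hits from a single-replicate KINOMEscan panel screen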
Construct: gene RPS6KA2
Parameter measured: Kd

query: Item COc1cc2ncnc(Nc3ccc(OCc4ccccc4Br)c(Cl)c3)c2cc1OC.Cl has what recorded Kd?
result: > 10 µM

----------
// reported %Inh for each item listed
System: PRKG1;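 note: KINOMEscan kinase panel screen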
Experimental context: concentration: 1 μM, replicates: in singlicate; n = 1

Examples with their reported %Inh follow.
Molecule | Value measured
CS(=O)(=O)CCNCc1ccc(-c2ccc3ncnc(Nc4ccc(OCc5ccccc5)c(Cl)c4)c3c2)o1.Cl [GW574783] | 0%
Clc1cccc(-c2nc(Nc3ccncc3)c3ccccc3n2)c1 [GW873004] | 16%
CC(C)(C)OC(=O)NC1CCCN(c2cc(-c3ccc4c(N)n[nH]c4c3)nc(N)n2)C1 (stereo not shown) [GSK2286096] | 0%

Attention now turns to another entry.
query: Item O=C(NCCCN1CCCC1=O)c1cnc(NCc2cc(Cl)ccc2Cl)nc1NC1CCNCC1 has what recorded %Inh?
result: 0%
